tested on: MCF-7 cells; assay: ATP/Rotenone assay, glucose dose response, MCF-7 cells; format: cell-based; settings: Homo sapiens, MCF7, 10 uM rotenone pre-treat, 15 min glucose, Celltiter-Glo
pEC50: −log10 of the molar value.

{"molecule": "O=C[C@H](O)[C@@H](O)[C@H](O)[C@H](O)CO [glucose]", "experimentalSystem": "MCF-7 cells", "pEC50": "~3.60"}

* * *

test system: pAKT (p-Akt 1/2/3 (Ser473)) in MCF-7 cells; assay: AlphaLISA Ultra pAKT assay; assay type: cell-based; conditions: Homo sapiens, MCF7, 2 hours compound incubation

{"smilesNotation": "Cc1cc(C)c(C(=O)N2CCN(c3ccccc3)[C@H](C(C)(C)O)C2)cc1NC1CCN(c2ccccc2C#N)CC1", "IC50": "> 10 µM"}
{"smilesNotation": "Cc1cc(C)c(C(=O)N2CCN(c3ccccn3)C(=O)C2)c(C)c1NC1CCN(c2ccc(F)cc2C#N)CC1", "IC50": "> 10 µM"}
{"smilesNotation": "Cc1cc(C)c(C(=O)N2CCN(c3ccccc3)[C@@H](CO)C2)cc1NC1CCN(c2ccccc2)CC1", "IC50": "> 10 µM"}
{"smilesNotation": "Cc1cc(C)c(S(=O)(=O)N2CCN(c3ccccc3S(N)(=O)=O)CC2)nc1NC1CCN(c2ccccc2C#N)CC1", "IC50": "> 10 µM"}
{"smilesNotation": "Cc1cc(C)c(C(=O)N2CCN(c3cccc(S(N)(=O)=O)c3)CC2)cc1NC1CCN(c2ccccc2Cl)CC1", "IC50": "> 10 µM"}
{"smilesNotation": "Cc1cc(C)c(C(=O)N2CCN(c3ncccc3S(N)(=O)=O)CC2)c(C)c1N[C@@H]1CCN(c2ccccc2C#N)C[C@@H]1C", "IC50": "> 10 µM"}
{"smilesNotation": "Cc1cc(C)c(C(=O)N2CCN(c3cccnn3)[C@H](CO)C2)c(C)c1NC1CCN(c2ccc(F)cc2C#N)CC1", "IC50": "> 10 µM"}
